test: PSAC antagonists in infected red cells, primary screen, cell-based, P. falciparum Indochina, OD700, 18 h (AID 1157); conditions: P. falciparum Indochina infected erythrocytes, osmotic lysis OD700, 18 h; higher = more signal, called active from +8 up or from −8 down
Observed Property: z-score
The answer should be written as a number, with no unit following it.

Suppose we examine the compound [N-]=[N+]=NCc1ccccc1C[C@@]1(C(=O)O)N=C(c2ccc(OCCCO)cc2)O[C@@H]1c1ccccc1CN=[N+]=[N-] ; what z-score value has been reported? -0.336

Likewise for COC(=O)[C@@]1(Cc2ccccc2)[C@@H]2[C@@H](CC(=O)[C@H]2CC(=O)C(=O)N(C)C)CN1C(=O)c1ccccc1 ? 0.738
